Data provenance is paper PMC8725837.

# test_system: IGF-1R (Homo sapiens)
# Construct: purchased Invitrogen/Life Technologies
# Sequence (P08069 31-1367): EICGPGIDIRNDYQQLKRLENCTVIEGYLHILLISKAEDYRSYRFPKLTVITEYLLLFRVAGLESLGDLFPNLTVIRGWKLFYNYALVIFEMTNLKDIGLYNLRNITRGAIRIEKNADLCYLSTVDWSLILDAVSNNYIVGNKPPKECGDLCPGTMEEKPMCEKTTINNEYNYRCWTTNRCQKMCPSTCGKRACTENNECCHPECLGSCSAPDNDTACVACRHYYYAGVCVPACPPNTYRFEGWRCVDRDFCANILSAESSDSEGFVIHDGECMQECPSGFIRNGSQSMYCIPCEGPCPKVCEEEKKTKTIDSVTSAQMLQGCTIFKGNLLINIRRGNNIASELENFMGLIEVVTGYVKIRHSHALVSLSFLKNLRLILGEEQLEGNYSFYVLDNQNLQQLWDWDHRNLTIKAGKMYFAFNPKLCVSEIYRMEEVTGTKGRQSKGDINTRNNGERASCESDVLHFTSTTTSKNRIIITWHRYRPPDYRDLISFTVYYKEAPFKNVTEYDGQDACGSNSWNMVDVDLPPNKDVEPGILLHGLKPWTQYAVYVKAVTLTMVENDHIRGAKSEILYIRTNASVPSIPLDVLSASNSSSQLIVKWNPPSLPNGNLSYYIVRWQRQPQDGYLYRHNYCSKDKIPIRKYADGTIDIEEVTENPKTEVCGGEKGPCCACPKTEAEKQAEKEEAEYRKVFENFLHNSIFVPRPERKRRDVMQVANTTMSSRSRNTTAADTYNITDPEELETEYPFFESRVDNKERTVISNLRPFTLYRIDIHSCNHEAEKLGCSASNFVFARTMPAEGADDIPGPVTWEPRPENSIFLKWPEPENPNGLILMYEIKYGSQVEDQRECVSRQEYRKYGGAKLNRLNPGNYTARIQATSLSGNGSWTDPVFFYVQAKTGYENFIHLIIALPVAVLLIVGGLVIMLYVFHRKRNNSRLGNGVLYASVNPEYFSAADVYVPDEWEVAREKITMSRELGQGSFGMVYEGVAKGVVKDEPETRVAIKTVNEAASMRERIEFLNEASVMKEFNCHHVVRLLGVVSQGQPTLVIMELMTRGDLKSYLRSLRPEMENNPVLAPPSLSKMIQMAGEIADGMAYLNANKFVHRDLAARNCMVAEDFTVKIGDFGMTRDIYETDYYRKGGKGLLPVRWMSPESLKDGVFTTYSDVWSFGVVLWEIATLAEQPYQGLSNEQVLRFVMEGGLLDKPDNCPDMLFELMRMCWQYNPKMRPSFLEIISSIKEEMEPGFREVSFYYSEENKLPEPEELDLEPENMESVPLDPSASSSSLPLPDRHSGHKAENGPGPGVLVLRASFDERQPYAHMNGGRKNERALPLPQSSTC
# measurement_notes: Z`-LYTE kinase profiling, IGF-1R
# Type: biochemical
reported_metric: pIC50
One number for each entry, as −log10 of the molar value.

Recorded results for 5 compounds are shown here.
COc1ccc(-c2ccc3nc(-c4ccc(F)cc4)cc(OCCCn4ccnc4)c3c2)cc1 [20c]: 5.73
COc1cc2nc(-c3ccc(C)cc3)cc(OCCCNC3CCN(C)CC3)c2cc1OC: 5.55
COc1cc2nc(-c3ccc(-c4ccco4)cc3)cc(OCCCN3CCN(C)CC3)c2cc1OC: 5.97
Fc1ccc(-c2cc(OCCCn3ccnc3)c3cc(Br)ccc3n2)cc1 [16c]: 5.17
FC(F)(F)c1ccc(-c2cc(OCCCn3ccnc3)c3cc4c(cc3n2)OCO4)cc1 [12c]: 5.05

Batch of 5 compounds: report pIC50 for each.
1. CN1CCN(CCCOc2cc(-c3ccc(C(F)(F)F)cc3)nc3ccccc23)CC1 [10a]
2. COc1cc2nc(-c3ccc(C)cc3)cc(OCCCNCC3CCCO3)c2cc1OC (stereo not shown)
3. COc1cc2nc(-c3ccc(Cl)cc3)cc(OCCCN3CCN(C)CC3)c2cc1OC
4. COc1cc2nc(-c3ccc(Cl)cc3)cc(OCCCNC3CCN(C)CC3)c2cc1OC
5. COc1ccc(-c2ccc3nc(-c4ccc(Cl)cc4)cc(OCCCN4CCOCC4)c3c2)cc1 [20b]

Out:
6.70
5.55
5.99
5.69
5.05

---

# test_system: VEGFR-1 (Homo sapiens, UniProt P17948)
# Construct: purchased Invitrogen/Life Technologies
# Sequence (P17948 27-1338): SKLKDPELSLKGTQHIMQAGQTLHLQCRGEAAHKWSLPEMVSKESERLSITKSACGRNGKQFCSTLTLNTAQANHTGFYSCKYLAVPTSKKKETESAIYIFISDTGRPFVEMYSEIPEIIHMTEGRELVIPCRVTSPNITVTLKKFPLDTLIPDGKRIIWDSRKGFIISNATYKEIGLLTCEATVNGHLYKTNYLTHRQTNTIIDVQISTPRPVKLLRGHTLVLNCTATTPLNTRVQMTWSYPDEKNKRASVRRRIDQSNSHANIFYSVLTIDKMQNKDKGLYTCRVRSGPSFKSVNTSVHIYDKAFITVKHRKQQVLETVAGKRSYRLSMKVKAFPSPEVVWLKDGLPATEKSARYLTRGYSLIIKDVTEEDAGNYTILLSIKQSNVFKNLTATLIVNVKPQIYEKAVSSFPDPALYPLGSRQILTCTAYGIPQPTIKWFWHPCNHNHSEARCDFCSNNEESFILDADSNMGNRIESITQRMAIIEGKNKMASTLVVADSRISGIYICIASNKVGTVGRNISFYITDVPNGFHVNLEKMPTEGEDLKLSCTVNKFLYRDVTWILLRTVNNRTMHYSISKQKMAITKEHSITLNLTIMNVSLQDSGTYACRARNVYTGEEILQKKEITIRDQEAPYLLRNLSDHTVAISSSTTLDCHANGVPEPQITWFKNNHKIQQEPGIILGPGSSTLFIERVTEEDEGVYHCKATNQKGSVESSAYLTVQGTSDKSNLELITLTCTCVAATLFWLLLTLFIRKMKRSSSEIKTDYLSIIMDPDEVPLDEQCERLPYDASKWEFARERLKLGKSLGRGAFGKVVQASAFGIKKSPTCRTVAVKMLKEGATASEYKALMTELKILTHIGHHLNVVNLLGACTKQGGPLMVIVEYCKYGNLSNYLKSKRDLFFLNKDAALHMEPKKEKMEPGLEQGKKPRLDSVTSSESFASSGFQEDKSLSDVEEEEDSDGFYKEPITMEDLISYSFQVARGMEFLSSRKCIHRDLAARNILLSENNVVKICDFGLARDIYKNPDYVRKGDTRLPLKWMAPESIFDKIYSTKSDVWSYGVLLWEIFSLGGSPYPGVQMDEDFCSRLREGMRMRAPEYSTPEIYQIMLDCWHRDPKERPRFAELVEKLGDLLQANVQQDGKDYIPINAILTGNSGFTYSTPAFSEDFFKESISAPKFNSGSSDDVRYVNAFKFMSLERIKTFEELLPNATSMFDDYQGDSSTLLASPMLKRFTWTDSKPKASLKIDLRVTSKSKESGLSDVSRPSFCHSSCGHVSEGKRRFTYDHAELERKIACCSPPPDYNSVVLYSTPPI
# measurement_notes: Z`-LYTE kinase profiling, VEGFR-1
# Assay type: biochemical
reported_metric: pIC50
Give bare numbers, as −log10 of the molar value.

COc1ccc(-c2ccc3nc(-c4ccc(F)cc4)cc(OCCCn4ccnc4)c3c2)cc1 [20c]: 5.76
FC(F)(F)c1ccc(-c2cc(OCCCNC3CCCCC3)c3ccccc3n2)cc1 [10b]: 5.07
Clc1ccc(-c2cc(OCCCN3CCOCC3)c3cc4c(cc3n2)OCO4)cc1 [12b]: 5.22

Batch of 7 compounds: report pIC50 for each.
1. COc1cc2nc(-c3ccc(C(F)(F)F)cc3)cc(OCCCn3ccnc3)c2cc1OC
2. COc1cc2nc(-c3ccc(Cl)cc3)cc(OCCCNC3CCN(C)CC3)c2cc1OC
3. COc1cc2nc(-c3ccc(Cl)cc3)cc(OCCCNCC3CCCO3)c2cc1OC (stereo not shown)
4. CN1CCN(CCCOc2cc(-c3ccc(C(F)(F)F)cc3)nc3ccccc23)CC1 [10a]
5. Fc1ccc(-c2cc(OCCCN3CCOCC3)c3cc(Br)ccc3n2)cc1 [16d]
6. COc1ccc(-c2ccc3nc(-c4ccc(F)cc4)cc(OCCCN4CCOCC4)c3c2)cc1 [20d]
7. COc1cc2nc(-c3ccc(C)cc3)cc(OCCCNC3CCN(C)CC3)c2cc1OC

Out:
[6.11, 6.22, 6.52, 5.36, 5.75, 6.15, 6.06]

---

Please respond with reported melting point for every item in the list.

COc1cc2nc(-c3ccc(Cl)cc3)cc(OCCCN3CCN(C)CC3)c2cc1OC [6a]: 140 to 142 °C
COc1cc2nc(-c3ccc(C(F)(F)F)cc3)cc(OCCCNC3CCCCC3)c2cc1OC [6g]: 131 to 133 °C
COc1ccc(-c2ccc3nc(-c4ccc(Cl)cc4)cc(OCCCn4ccnc4)c3c2)cc1 [20a]: 210 to 212 °C

Batch of 6 compounds: report melting point for each.
1. Clc1ccc(-c2cc(OCCCn3ccnc3)c3cc(-c4ccco4)ccc3n2)cc1 [20e]
2. Fc1ccc(-c2cc(OCCCn3ccnc3)c3cc(Br)ccc3n2)cc1 [16c]
3. COc1ccc(-c2ccc3nc(-c4ccc(F)cc4)cc(OCCCn4ccnc4)c3c2)cc1 [20c]
4. COc1ccc(-c2ccc3nc(-c4ccc(F)cc4)cc(OCCCN4CCOCC4)c3c2)cc1 [20d]
5. Fc1ccc(-c2cc(OCCCN3CCOCC3)c3cc(Br)ccc3n2)cc1 [16d]
6. CN1CCN(CCCOc2cc(-c3ccc(C(F)(F)F)cc3)nc3ccccc23)CC1 [10a]

Out:
["130 to 132 °C", "144 to 146 °C", "176 to 178 °C", "168 to 170 °C", "132 to 134 °C", "110 to 112 °C"]

In: Give the value of melting point reported for the following: COc1cc2nc(-c3ccc(Cl)cc3)cc(OCCCNCC3CCCO3)c2cc1OC (stereo not shown) [6d]
Out: 108 to 110 °C
